src = patent US20240084003A1

# TESTED_ON: T1, human CD22, full length, on CHO-K1-human CD22 2C4 cells (human, UniProt P20273 20-847)
# T1 construct: Full-length human CD22 (NCBI NP_001762.2) stably transfected into CHO-K1
# T1 sequence: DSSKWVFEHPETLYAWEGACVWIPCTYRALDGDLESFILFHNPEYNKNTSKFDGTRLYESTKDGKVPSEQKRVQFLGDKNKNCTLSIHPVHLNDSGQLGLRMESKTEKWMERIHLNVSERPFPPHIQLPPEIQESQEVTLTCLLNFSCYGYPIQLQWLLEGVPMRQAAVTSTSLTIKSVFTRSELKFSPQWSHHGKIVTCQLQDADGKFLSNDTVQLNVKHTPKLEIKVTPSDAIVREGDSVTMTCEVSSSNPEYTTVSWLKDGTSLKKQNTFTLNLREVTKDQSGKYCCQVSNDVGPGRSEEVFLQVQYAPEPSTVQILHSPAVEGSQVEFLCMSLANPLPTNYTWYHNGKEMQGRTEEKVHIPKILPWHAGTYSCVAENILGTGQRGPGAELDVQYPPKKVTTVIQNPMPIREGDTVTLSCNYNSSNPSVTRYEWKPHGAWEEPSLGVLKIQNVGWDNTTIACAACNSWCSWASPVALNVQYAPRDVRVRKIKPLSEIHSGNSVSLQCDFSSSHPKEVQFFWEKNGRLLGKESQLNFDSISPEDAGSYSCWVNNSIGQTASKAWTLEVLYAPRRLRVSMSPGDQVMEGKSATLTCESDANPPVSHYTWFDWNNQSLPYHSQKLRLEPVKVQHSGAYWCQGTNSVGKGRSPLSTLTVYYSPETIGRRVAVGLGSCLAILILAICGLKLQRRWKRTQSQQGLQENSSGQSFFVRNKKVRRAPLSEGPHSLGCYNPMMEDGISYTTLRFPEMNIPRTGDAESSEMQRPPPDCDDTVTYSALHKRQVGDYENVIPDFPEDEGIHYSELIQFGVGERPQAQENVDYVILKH
# PROTOCOL: FACS, CHO-K1-human CD22 2C4 cells
MEASUREMENT_KIND: EC50 (pM)
Give bare numbers, in pM.

Given the binder F2.99.1 human-murine chimeric antibody (antibody, human IgG1, lambda, V domains shown, Chimeric, human IgG1 / lambda; VL tied by name) VH: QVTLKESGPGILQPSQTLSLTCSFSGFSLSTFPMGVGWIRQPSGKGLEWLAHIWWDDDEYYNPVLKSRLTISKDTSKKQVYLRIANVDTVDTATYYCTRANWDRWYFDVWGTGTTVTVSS VL: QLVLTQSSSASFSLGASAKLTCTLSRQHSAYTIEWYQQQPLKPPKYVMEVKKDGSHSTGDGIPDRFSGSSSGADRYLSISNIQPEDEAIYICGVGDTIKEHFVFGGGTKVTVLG , what is its reported EC50?
830
